biological target: MSI2 F97A (Homo sapiens, UniProt Q96DH6 1-328, F97A); assay: MST; MST: 50 mM HEPES, 100 mM NaCl, 0.05% Tween-20, pH 7.4, RT; EMSA: 10 mM HEPES, 20 mM KCl (+10 mM KCl), 1 mM MgCl2, 1 mM DTT, 5% glycerol, 100 ug/mL tRNA, 40 nM RNA, RT; details: protein: recombinant; tags: GST, Flag; single strand
Sequence (Q96DH6 whole entry F97A): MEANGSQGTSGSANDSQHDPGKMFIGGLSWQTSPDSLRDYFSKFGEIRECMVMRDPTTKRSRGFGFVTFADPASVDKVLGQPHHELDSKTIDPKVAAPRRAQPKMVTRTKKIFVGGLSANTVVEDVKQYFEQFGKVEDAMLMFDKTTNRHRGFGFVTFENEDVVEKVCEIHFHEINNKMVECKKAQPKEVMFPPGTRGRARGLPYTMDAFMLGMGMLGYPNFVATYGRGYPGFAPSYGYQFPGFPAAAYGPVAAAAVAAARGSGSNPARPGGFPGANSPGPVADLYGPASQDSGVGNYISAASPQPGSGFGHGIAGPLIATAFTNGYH
readout-name: pKd
Just the number, please; pKd means minus log10 of the concentration in mol/L.

Recorded result, GUAGUAGUAGUAGUA (ssRNA) [15-nt MSI RNA oligo] , pKd: 8.18

The reported numbers originate from paper PMC6584500.
